B1: tRNA (parent)
chain: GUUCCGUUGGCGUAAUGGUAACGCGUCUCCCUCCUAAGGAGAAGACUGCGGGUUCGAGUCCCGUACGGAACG

variants of: B1; assay: yeast fitness relative to wild type (ratio to wild type); higher = fitter; tRNA-Arg(CCU), competitive growth, 37 C, YPD
Variants at the floor of the assay were thinned out.
Listing of recorded yeast fitness by entry.

Past entries and their recorded results:
variant notation | assay value
C24U U28G G48A | ≤ 0.5
A14U G23U C61G | ≤ 0.5
G17A C24G C33U A37U | ≤ 0.5
C22U A40U A43U | ≤ 0.5
A15U A42C G48A G50C | ≤ 0.5
U2A C24U C31G G44A | ≤ 0.5
U19A C24A C30G C34U G52C | ≤ 0.5
C5U C31G C49U C61G | ≤ 0.5

Quick note, yeast fitness for C5A U16A A45G G50A G56A landed at ≤ 0.5

The recorded yeast fitness for C4U U26C G44A G52A C66U is ≤ 0.5

yeast fitness measured on U7C A15G G18C = ≤ 0.5

Looking up A21U A42U G44C C60G C62G , I see its yeast fitness listed as ≤ 0.5

Short answer for C27A A36C A42U : yeast fitness was ≤ 0.5

Record summary for G12C A15U C33U C49G G58A : reported yeast fitness = ≤ 0.5

Consider U28C C31A C34G A45U . Its measured yeast fitness is ≤ 0.5

Value of yeast fitness reported for the variant G38A A43C A65C is ≤ 0.5

Lookup result for U13C G25C C27G ; measured yeast fitness: 0.539

The variant C29A G51A C55A G56C A65U showed yeast fitness equal to ≤ 0.5

The value of yeast fitness measured for the variant U8C C24A C49U turned out to be ≤ 0.5

# credit: the RNAGym collection of RNA variant scans (doi:10.1126/science.aae0568)
